Target: HIV protease (Human immunodeficiency virus type 1 group M subtype B)
Construct: HIV protease is diluted in the assay buffer to a final enzyme concentration of 12.3 nanomolar, based on a molecular weight of 10,780
Experiment: HIV protease enzyme assay (fluorescence, substrate 2-Ile-Nle-Phe(p-NO2)-Gln-ArgNH2)
Assay type: biochemical
Conditions: Table 19B; @ 10 uM
A collection of compounds and their measured IC50 (uM) or % inhib: % inhib @ 10 uM
endpoint: IC50 (uM) or % inhib: % inhib @ 10 uM (%)

{"compound": "CC(C)CCN(C[C@@H](O)[C@H](Cc1ccccc1)NC(=O)OCc1ccccc1)S(=O)(=O)CCl [Table 1a Entry 52]", "scaleUnit": "%", "obsValue": 81}
{"compound": "CC(C)CCN(C[C@@H](O)[C@H](Cc1ccccc1)NC(=O)OCc1ccccc1)S(C)(=O)=O [Table 1a Entry 41]", "scaleUnit": "%", "obsValue": 74}
{"compound": "CC(C)CCN(C[C@@H](O)[C@H](Cc1ccccc1)NC(=O)OCc1ccccc1)S(=O)(=O)C(F)(F)F [Table 1a Entry 50]", "scaleUnit": "%", "obsValue": 89}
{"compound": "CC(C)CN(C[C@@H](O)[C@H](Cc1ccccc1)NC(=O)OCc1ccccc1)S(C)(=O)=O [Table 1a Entry 51]", "scaleUnit": "%", "obsValue": 76}
